System: VeroE6 cells

Structure Smiles	CC50
CN1CCN(C(=O)N[C@@H](Cc2ccccc2)C(=O)N[C@H](/C=C/S(=O)(=O)c2ccccc2)CCc2ccccc2)CC1	> 30 µM
